Ref: the supplement of paper PMC10307832

Test system: COR-L23
assay.procedure: relative viability (nuclei count vs DMSO), 5 days (fraction); higher = more cells survive
assay.context: first compound 0.1265 µM
Recorded relative viability for the following compounds
# output: bare number, no unit

The examples below pair each entry with its known result.
compound	tgt	relative viability
Clc1ccc(Nc2nnc(Cc3ccncc3)c3ccccc23)cc1 [Vatalanib] + O=C(CCCCCCC(=O)Nc1ccccc1)NO [Vorinostat] (partner 1 µM)	COR-L23	0.553
Clc1ccc(Nc2nnc(Cc3ccncc3)c3ccccc23)cc1 [Vatalanib] + N=C(N)NC(=N)NCCc1ccccc1 [Phenformin] (partner 250 µM)	COR-L23	0.43
C[C@@H]1CN(CC(=O)Nc2ccc3c(c2)Cc2cccc(-c4cc(=O)cc(N5CCOCC5)o4)c2S3)C[C@H](C)O1 + Cc1cc(Nc2cc(N3CCN(C)CC3)nc(Sc3ccc(NC(=O)C4CC4)cc3)n2)n[nH]1 [Tozasertib] (partner 0.1 µM)	COR-L23	0.218
COc1cc(N2CCC(C(N)=O)CC2)ccc1Nc1nc(N)c(Cl)c(Nc2ccccc2S(=O)(=O)C(C)C)n1 [HG-5-88-01] + Cc1cc(Nc2cc(N3CCN(C)CC3)nc(Sc3ccc(NC(=O)C4CC4)cc3)n2)n[nH]1 [Tozasertib] (partner 0.1 µM)	COR-L23	0.196

Here's the next entry for you.
GET /values?readout=relative viability&item= COc1cc(N2CCC(C(N)=O)CC2)ccc1Nc1nc(N)c(Cl)c(Nc2ccccc2S(=O)(=O)C(C)C)n1 [HG-5-88-01] + O=C(c1cc(Cc2n[nH]c(=O)c3ccccc23)ccc1F)N1CCN(C(=O)C2CC2)CC1 [Olaparib] (partner 8 µM)
0.386
